Target: UniProtKB P07550
Sequence (P07550 whole entry, species assumed): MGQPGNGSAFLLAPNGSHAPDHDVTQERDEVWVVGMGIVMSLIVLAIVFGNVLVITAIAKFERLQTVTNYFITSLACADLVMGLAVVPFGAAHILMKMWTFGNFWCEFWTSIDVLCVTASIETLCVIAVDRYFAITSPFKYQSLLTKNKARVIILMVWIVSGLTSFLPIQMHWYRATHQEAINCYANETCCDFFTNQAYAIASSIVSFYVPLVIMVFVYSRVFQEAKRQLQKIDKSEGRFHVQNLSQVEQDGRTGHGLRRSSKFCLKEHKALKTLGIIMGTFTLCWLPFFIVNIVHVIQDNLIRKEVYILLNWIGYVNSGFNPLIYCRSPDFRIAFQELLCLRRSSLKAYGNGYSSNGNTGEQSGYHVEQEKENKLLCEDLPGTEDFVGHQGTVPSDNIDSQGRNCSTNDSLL
Assay: cAMP Gs dynamic HTRF assay, β2 expressing CHO cells
Format: cell-based
Details: B2-AR; CHO-K cells; read-out: Average EC50 [Receptor subtype: B2-AR; Cell type: CHO-K]
Collected EC50 values appear next to each entry.

[
  {
    "Molecule": "COc1ccc(CC(C)(C)NC[C@H](O)c2cccc(C(F)(F)F)n2)cc1",
    "Experimental Endpoint": "EC50",
    "Result": "< 10 nM"
  }
]

Given "CC(C)(C)NC[C@H](O)c1ccnc(C(F)(F)F)n1" , state its recorded EC50. 100 to 1000 nM

Given CC(C)(C)NC[C@H](O)c1cccc(N2CC3CCCC3C2)n1 (stereo partly drawn) , state its recorded EC50. < 10 nM

Given "O[C@@H](CNC1Cc2ccccc2C1)c1cccc(C(F)(F)F)n1" , state its recorded EC50. 10 to 100 nM

src = patent US10947196B2
